Target: ^K48Ub4 (Homo sapiens, UniProt P0CG47)
Construct: solid phase peptide synthesis of Ub monomers (modified as required); made in house
Assay: SPR binding of cyclic peptides to K48-linked tetra-ubiquitin
Conditions: SPR, target ^K48Ub4
Protocol: Surface Plasmon Resonance (SPR) The interactions between cyclic peptides: U2i, U2ii, U4i, U4ix and Ub1, ^K48Ub2 and ^K48Ub4, were determined using BIACORE T100 instrument (GE healthcare) equipped with a biotin CAPture kit Series S chip. The buffer in all experiments contained 50 mM HEPES, pH 7.3, 150 mM NaCl, 0.05% Tween20, 2 mM DTT with 0.2% DMSO. […]
Listed compounds paired with reported koff
Quick note: unit goes after the number.

Some compounds with known koff results, for comparison:
CC(C)C[C@@H]1NC(=O)[C@H](Cc2ccc(O)cc2)NC(=O)[C@H](Cc2ccc(O)cc2)NC(=O)[C@H](Cc2ccc(O)cc2)NC(=O)[C@H](CCC(=O)O)NC(=O)[C@H](CCCNC(=N)N)NC(=O)[C@H](CC(=O)O)NC(=O)[C@H](Cc2ccc(O)cc2)NC(=O)[C@H](Cc2c[nH]c3ccccc23)NC(=O)[C@@H](Cc2c[nH]c3ccccc23)NC(=O)CSC[C@@H](C(=O)NCC(N)=O)NC(=O)CNC(=O)[C@H](Cc2ccc(O)cc2)NC(=O)CNC1=O [Ub2ii] | 0.012 s⁻¹
CC[C@H](C)[C@@H]1NC(=O)[C@H](Cc2c[nH]c3ccccc23)NC(=O)[C@H](Cc2c[nH]c3ccccc23)NC(=O)[C@H](CC(=O)O)NC(=O)CNC(=O)[C@H](CO)NC(=O)[C@H](CC(=O)O)NC(=O)[C@H](CC(=O)O)NC(=O)[C@H](CC(C)C)NC(=O)[C@H](Cc2ccc(O)cc2)NC(=O)[C@H](CC(C)C)NC(=O)[C@@H](Cc2c[nH]c3ccccc23)NC(=O)CSC[C@@H](C(=O)NCC(N)=O)NC1=O [Ub4ix] | 0.021 s⁻¹

## Task I'd like to know its koff. The compound in question is CC(C)C[C@@H]1NC(=O)[C@H](CC(=O)O)NC(=O)[C@H](CC(=O)O)NC(=O)[C@H](Cc2ccccc2)NC(=O)[C@H](Cc2c[nH]c3ccccc23)NC(=O)CNC(=O)[C@@H](Cc2c[nH]c3ccccc23)NC(=O)CSC[C@@H](C(=O)NCC(N)=O)NC(=O)[C@H](Cc2ccc(O)cc2)NC(=O)[C@H](C)NC(=O)[C@H](C(C)C)NC(=O)[C@H](Cc2ccccc2)NC(=O)[C@H](CC(C)C)NC(=O)[C@H](Cc2ccc(O)cc2)NC1=O [Ub4i]
## Result 0.011 s⁻¹

meta.source: patent US12084523B2
